# systemUnderTest: hS1P1 receptor (Homo sapiens, UniProt P21453)
# Sequence (P21453 whole entry): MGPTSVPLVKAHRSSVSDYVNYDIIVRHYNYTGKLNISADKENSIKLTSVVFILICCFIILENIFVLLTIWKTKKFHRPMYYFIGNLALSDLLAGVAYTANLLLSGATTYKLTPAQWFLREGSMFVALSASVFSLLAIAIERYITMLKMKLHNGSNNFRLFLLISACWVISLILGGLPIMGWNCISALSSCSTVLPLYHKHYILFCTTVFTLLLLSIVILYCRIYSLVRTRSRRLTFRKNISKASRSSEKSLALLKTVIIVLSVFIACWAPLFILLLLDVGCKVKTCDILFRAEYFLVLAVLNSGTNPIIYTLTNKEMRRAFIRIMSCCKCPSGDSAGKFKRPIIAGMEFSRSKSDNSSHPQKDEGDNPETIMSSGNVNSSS
# methodNotes: hS1P1 receptor internalization assay (cell imaging-based, hS1P1-eGFP U2OS cells)
# experimentalConditions: U2OS cell line expressing hS1P1-eGFP; compounds incubated at 37° C. for one hour; GFP-containing endosomes per cell (ArrayScan); read-out: hS1P1 Receptor Internalization (bioimaging) EC50 IP
Counter-ions that a name gives are not always drawn.
Rule: measured EC50 below 40 nM gets criterion met; anything equal to or greater than 40 nM gets criterion not met.

Worked set:
compound	className
O=C(O)C1CN(Cc2ccc(-c3nc4ccc(C5(c6ccccc6F)CC5)nc4s3)c(F)c2)C1	criterion met
CC(=O)NCCc1ccc(-c2nc3ccc(C4(c5ccccc5)CC4)nc3s2)c(F)c1	criterion not met
O=C(O)CC1CN(Cc2ccc(-c3nc4ccc(C5(c6ccccc6)CC5)nc4s3)c(F)c2)C1	criterion met
O=C(O)C1CN(Cc2ccc(-c3nc4cnc(C5(c6ccccc6)CC5)cc4s3)c(F)c2)C1 [Example 45, trifluoroacetic acid salt]	criterion not met
O=C(O)CCNCc1ccc(-c2nc3ccc(C4(c5ccccc5)CC4)nc3s2)c(F)c1 [Example 12, hydrochloride]	criterion met
C[C@H](CC(=O)O)NCc1ccc(-c2nc3ccc(C4(c5ccccc5)CC4)nc3s2)c(F)c1 [Example 91, hydrochloride]	criterion met

query: Record O=C(O)C1(F)CN(Cc2ccc(-c3nc4ccc(C5(c6ccccc6)CC5)nc4s3)c(F)c2)C1 [Example 4, hydrochloride] : is its EC50 strictly below 40 nM?
result: criterion met

query: Record NC(CO)(CO)CCc1ccc(-c2nc3ccc(C4(c5ccccc5)CC4)nc3s2)c(F)c1 [Example 42, hydrochloride] : is its EC50 strictly below 40 nM?
result: criterion met
